B1: H2-Kb / Ed45 (parent complex)
chain 1: GEQVEQRPPHLSVREGDSAVIICTYTDPNSYYFFWYKQEPGAGLQLLMKVFSSTEINEGQGFTVLLNKKDKQLSLNLTAAHPGDSAVYFCAVSGTNAYKVIFGKGTHLHVLP
chain 2: EAAVTQSPRSKVAVTGGKVTLSCHQTNNHDYMYWYRQDTGHGLRLIHYSYVADSTEKGDIPDGYKASRPSQENFSLILELASLSQTAVYFCASARGFQDTQYFGPGTRLLVL
chain 3: not shown
chain 4: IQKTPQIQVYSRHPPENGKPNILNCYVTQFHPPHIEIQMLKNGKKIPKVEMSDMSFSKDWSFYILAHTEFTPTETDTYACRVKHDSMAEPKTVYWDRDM
chain 5: SIINFEKL

Variants of: B1
experiment notes: % of reporter cells activated (NFAT-GFP), raw; further: test concentration or dose not given here
Values of ratio to parent greater than or equal to 0.9 map to t; values below map to f.

INSERT INTO results (mutant_id, assigned_label) VALUES
  ('chain 5 N4M', 'f'),
  ('chain 5 E6V', 'f'),
  ('chain 5 E6W', 'f'),
  ('chain 5 I2G', 't'),
  ('chain 5 K7Y', 't'),
  ('chain 5 I2W', 't'),
  ('chain 5 F5A', 'f'),
  ('chain 5 I3D', 't'),
  ('chain 5 L8Q', 't'),
  ('chain 5 S1A', 'f'),
  ('chain 5 S1Y', 'f'),
  ('chain 5 L8D', 't'),
  ('chain 5 S1P', 'f'),
  ('chain 5 I2R', 't'),
  ('chain 5 E6R', 'f'),
  ('chain 5 N4D', 'f'),
  ('chain 5 S1L', 'f'),
  ('chain 5 L8V', 't'),
  ('chain 5 I2H', 't'),
  ('chain 5 S1G', 'f'),
  ('chain 5 F5H', 't'),
  ('chain 5 E6I', 'f'),
  ('chain 5 N4R', 'f'),
  ('chain 5 I3Y', 'f'),
  ('chain 5 L8W', 't'),
  ('chain 5 I2A', 't'),
  ('chain 5 F5N', 't'),
  ('chain 5 S1H', 'f'),
  ('chain 5 S1W', 'f'),
  ('chain 5 I3S', 't'),
  ('chain 5 F5I', 'f'),
  ('chain 5 I3Q', 't'),
  ('chain 5 S1F', 'f'),
  ('chain 5 E6F', 'f'),
  ('chain 5 S1K', 'f'),
  ('chain 5 N4S', 'f'),
  ('chain 5 N4W', 'f'),
  ('chain 5 F5W', 't'),
  ('chain 5 E6M', 'f'),
  ('chain 5 N4E', 't'),
  ('chain 5 F5L', 'f'),
  ('chain 5 K7G', 'f'),
  ('chain 5 F5K', 't'),
  ('chain 5 L8G', 't'),
  ('chain 5 I3G', 't'),
  ('chain 5 E6N', 't'),
  ('chain 5 E6P', 't'),
  ('chain 5 N4F', 'f'),
  ('chain 5 I2E', 't'),
  ('chain 5 K7W', 't'),
  ('chain 5 F5M', 'f'),
  ('chain 5 I3M', 't'),
  ('chain 5 F5R', 't'),
  ('chain 5 N4H', 'f'),
  ('chain 5 I2L', 't'),
  ('chain 5 S1N', 'f'),
  ('chain 5 S1V', 'f'),
  ('chain 5 I2K', 't'),
  ('chain 5 L8M', 't'),
  ('chain 5 E6H', 'f'),
  ('chain 5 I3W', 't'),
  ('chain 5 I2V', 't'),
  ('chain 5 I3F', 'f'),
  ('chain 5 F5Q', 't'),
  ('chain 5 K7I', 'f'),
  ('chain 5 N4Y', 'f'),
  ('chain 5 F5Y', 't'),
  ('chain 5 I3C', 't'),
  ('chain 5 F5T', 't'),
  ('chain 5 N4L', 't'),
  ('chain 5 L8H', 't'),
  ('chain 5 N4V', 'f'),
  ('chain 5 I3H', 't'),
  ('chain 5 N4T', 'f'),
  ('chain 5 E6A', 't'),
  ('chain 5 I2Q', 't'),
  ('chain 5 I3L', 't'),
  ('chain 5 K7N', 'f'),
  ('chain 5 E6Q', 'f'),
  ('chain 5 K7E', 'f'),
  ('chain 5 N4G', 't'),
  ('chain 5 L8F', 't'),
  ('chain 5 E6L', 'f'),
  ('chain 5 K7M', 't'),
  ('chain 5 L8Y', 't'),
  ('chain 5 I3V', 't'),
  ('chain 5 I3K', 't'),
  ('chain 5 L8E', 't');
